Where do these numbers come from? They come from PubChem BioAssay.

assay-system: Calmodulin-1 (Homo sapiens)
assay-notes: CALM1 binders on microarrays, EGTA buffer, profiling panel, biochemical, small-molecule microarray, Cy5-labelled CALM1 (AID 1111);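 further: labelled calmodulin applied in Tris saline Tween buffer holding calcium plus EGTA and DTT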
test-parameters: Cy5-CALM1 binding fluorescence, higher = more signal
Here, each record is paired with measured composite z-score data.

molecule: C=C(/C(=C/C[C@H](OC(=O)c1ccncc1)c1ccc(OCCO)cc1)c1cnc2ccccc2c1)C(C)C
composite z-score: 0.0481
//
molecule: Cc1cc2c(nc1C)CCCN2CC(C)ON=C1[C@H]2CCn3c(=O)n(-c4ccccc4)c(=O)n3[C@H]2[C@H](O)[C@@H]2O[C@H]12 (some centres not stated)
composite z-score: -0.135
//
molecule: C[C@@H]1CC[C@H]2C(=O)O[C@H](COc3ccc(C(C)(C)C)cc3)CN2[C@H]1c1ccc(Br)cc1
composite z-score: -0.11
//
molecule: C#CCCCON=C1C[C@@H](O)[C@@H](O)[C@@H]2[C@@H]3C(=O)N(c4cccc(Oc5ccccc5)c4)C(=O)[C@@H]3CC[C@@H]12
composite z-score: 0.298
//
molecule: CCOC(=O)C[C@H]1[C@H](OC(=O)c2ccc(C(=O)c3ccccc3)cc2)[C@@H](NC(=O)c2ccc(-c3ccccc3)cc2)c2cc(OCCCO)ccc2N1C(=O)c1ccc2ccccc2n1
composite z-score: -0.299
//
molecule: CCN1C(=O)[C@H]2[C@H]3[C@H](O)[C@H](O)CC(=NO[C@@H]4O[C@H](CO)[C@@H](O)[C@H](O)[C@H]4O)[C@@H]3CC[C@H]2C1=O
composite z-score: -0.665
//
molecule: COc1ccccc1CN1C(=O)c2ccccc2[C@@]2(Cc3ccccc3N(C(C)C)C2=O)[C@@H]1c1ccc(CO)cc1
composite z-score: -0.37

###

System: glycogen synthase kinase-3 (GSK3A per assay name; protocol says GSK3B)
assay-notes: GSK3 binders on small-molecule microarrays, primary screen, biochemical, small-molecule microarray, 635 nm fluorescence, GSK3A (AID 1103); further: the record names both GSK3A and GSK3B
test-parameters: small-molecule microarray binding, fluorescence 635 nm; higher = more signal

molecule: COC(=O)[C@H](C)NC(=O)CCC1CC(OC(=O)NCCc2ccc(F)cc2)CC2(CCCC(COC(=O)NCC(c3ccccc3)c3ccccc3)O2)O1 (stereo not given in full)
composite z-score: 0.756
//
molecule: COc1ccc([Si](C)(C)[C@@H]2[C@@H](CCO)O[C@]3(C(=O)N(Cc4ccc(NC(C)=O)cc4)c4ccccc43)[C@H]2C)cc1
composite z-score: 1.28
//
molecule: CCc1cccc(NC(=O)O[C@H]2[C@H](OC(=O)Nc3ccc4c(c3)OCO4)[C@@H](OC(=O)Nc3ccc4c(c3)OCO4)[C@@H](OC)O[C@@H]2CO)c1
composite z-score: 1.35
//
molecule: N#Cc1ccc(NN2C(C(O)c3cc(C(F)(F)F)cc(C(F)(F)F)c3)C=CC3C(=O)N(c4ccccc4)C(=O)C32)cc1 (stereo not given)
composite z-score: 1.28
//
molecule: C[N+](C)(C)CCCCCCNC(=O)[C@@H]1C[C@@H]2C(=O)N3CCC[C@H]3C(=O)N2[C@@H]1c1cccc(OCCO)c1
composite z-score: 0.586
//
molecule: Cc1ccc(S[C@]2(C(=O)O)CC(=O)N(Cc3ccccc3)[C@@H]2c2ccc(CO)cc2I)cc1
composite z-score: -0.0099
//
molecule: C=COC[C@H]1CN2[C@@H](CC[C@@H](C)[C@@H]2c2ccc(Br)cc2)C(=O)O1
composite z-score: 0.665
//
molecule: CC(C)N1CC=CC23O[C@@H]4C=CCCOC(=O)C4[C@H]2C(=O)N(CCCCCCO)[C@@H]3C1=O (stereo not given in full)
composite z-score: -1.13
//
molecule: CCOC(=O)[C@H](CC(C)C)NC(=O)CCC1CC(OC(=O)NCc2cccc3ccccc23)CC2(CCCC(COC(=O)NCCc3ccccc3OC)O2)O1 (stereo not given in full)
composite z-score: 1.03
//
molecule: C=CCC(OC(C)=O)[C@@H]1[C@@H](N(Cc2cc3ccccc3o2)C(=O)Cc2ccc(F)cc2)c2cc(OCCCO)ccc2N1C(=O)Cc1ccc(OC)cc1 (stereo not given in full)
composite z-score: -1.17
//
molecule: Cc1ccc(C2CC=C(C(=O)O)CN2S(=O)(=O)c2ccc(C)cc2)cc1 (stereo not given)
composite z-score: 0.834
//
molecule: COC(=O)C1=C(C)N(Cc2ccccc2)[C@]23O[C@](C(=O)OC)(C(=O)N2[C@@H]1c1ccccc1)[C@H]1CCOC(=O)[C@H]13
composite z-score: 0.466
//
molecule: COCCOC(=O)N1C(=O)[C@@]2(c3cc(C#CC4(O)CCCCCC4)ccc31)[C@H](c1ccc(OCCO)cc1)N1[C@H](c3ccccc3)[C@H](c3ccccc3)OC(=O)[C@H]1[C@@H]2C(=O)NC[C@H](O)c1ccccc1
composite z-score: 1.29
//
molecule: CCN1C(=O)[C@H]2[C@H]3[C@H](O)[C@H](O)CC(=NOC(C)CN4CCCCc5nc(C)c(C)cc54)[C@@H]3CC[C@H]2C1=O (stereo not given in full)
composite z-score: 0.606
//
molecule: C[C@H]1Cc2c(-c3ccccc3)nc3c(c2CO1)CN(CCOc1ccccc1)CC3
composite z-score: 1.28
//
molecule: CC(CCN1CCc2nc(-c3ccccc3)c(-c3ccccc3)cc2C1)=NO[C@@H](C)c1cn([C@H](CO)Cc2ccccc2)nn1
composite z-score: -0.335
//
molecule: C=C(/C(=C/C[C@H](OC(C)=O)c1ccc(OCCO)cc1)c1cnc2ccccc2c1)C(C)C
composite z-score: 0.939
//
molecule: COC(=O)[C@@]1(Cc2ccc(F)cc2)[C@@H]2C(=CC(=O)[C@H]2CC(=O)C(=O)N(C)C)CN1C(=O)c1ccccc1
composite z-score: 1.29
//
molecule: COc1ccccc1CN1C(=O)c2ccccc2[C@@H](C(=O)NCC(F)(F)F)[C@@H]1c1ccc(CO)cc1
composite z-score: 0.715
//
molecule: CO[C@H]1COC(=O)CC=C[C@H](C)[C@@H](NS(=O)(=O)c2ccc(C)cc2)COC(=O)CC=C[C@@H]1C
composite z-score: 0.528
//
molecule: COc1ccc(CCNC(=O)[C@@H]2c3ccccc3C(=O)N(c3ccc(C)cn3)[C@H]2c2ccc(CO)cc2)cc1
composite z-score: -0.37
//
molecule: CCCCCN1CC=CC23O[C@@H]4C=CCOC(=O)[C@@H]4[C@H]2C(=O)N(CCCCCCO)[C@@H]3C1=O (stereo not given in full)
composite z-score: -1.08
//
molecule: CC(CCC(=O)OC[C@H]1O[C@H](C#Cc2ccccc2)C=C[C@@H]1Oc1ccc(C)cc1)=NOC[C@@H](O)COCc1ccco1
composite z-score: -1.25
//
molecule: CCc1cc2c(nc1CC)CCN(CCC(C)=NOC(C)CN1CCCc3nc(C)c(C)cc31)C2 (stereo not given)
composite z-score: 1.06
//
molecule: CCOC(=O)[C@H](Cc1ccccc1)NC(=O)CCC1CC(OC(=O)NCCc2ccc(F)cc2)CC2(CCCC(COC(=O)NCC(c3ccccc3)c3ccccc3)O2)O1 (stereo not given in full)
composite z-score: 0.729
//
molecule: CCOC(=O)NN=C1C[C@@H](O)[C@@H](O)[C@@H]2[C@@H]3C(=O)N(C4CCCCC4)C(=O)[C@@H]3CC[C@H]12
composite z-score: 0.518
//
molecule: CN1C(=O)C2C=CC(C(O)c3ccc(Br)cc3)N(N(c3ccccc3)c3ccccc3)C2C1=O (stereo not given)
composite z-score: -0.0403
//
molecule: CC(C)(C)N1C(=O)[C@H]2[C@H]3[C@H](O)[C@H](O)CC(=NOCc4ccccc4)[C@@H]3CC[C@H]2C1=O
composite z-score: 0.535
//
molecule: CO[C@H]1COC(=O)[C@@H]2CCCN2C(=O)CC=C[C@@H](C)[C@H](OC)COC(=O)CC=C[C@@H]1C
composite z-score: 1.06
//
molecule: O=C1NC(=O)C2C1C=CC(C(O)Cc1ccccc1)N2Nc1ccccn1 (stereo not given)
composite z-score: 0.0157
